# TGT: hyaluronidase type IV-S from a bovine testis (Bos taurus)
# Construct: gene SPAM1
# Sequence (Q2YDK3 36-553): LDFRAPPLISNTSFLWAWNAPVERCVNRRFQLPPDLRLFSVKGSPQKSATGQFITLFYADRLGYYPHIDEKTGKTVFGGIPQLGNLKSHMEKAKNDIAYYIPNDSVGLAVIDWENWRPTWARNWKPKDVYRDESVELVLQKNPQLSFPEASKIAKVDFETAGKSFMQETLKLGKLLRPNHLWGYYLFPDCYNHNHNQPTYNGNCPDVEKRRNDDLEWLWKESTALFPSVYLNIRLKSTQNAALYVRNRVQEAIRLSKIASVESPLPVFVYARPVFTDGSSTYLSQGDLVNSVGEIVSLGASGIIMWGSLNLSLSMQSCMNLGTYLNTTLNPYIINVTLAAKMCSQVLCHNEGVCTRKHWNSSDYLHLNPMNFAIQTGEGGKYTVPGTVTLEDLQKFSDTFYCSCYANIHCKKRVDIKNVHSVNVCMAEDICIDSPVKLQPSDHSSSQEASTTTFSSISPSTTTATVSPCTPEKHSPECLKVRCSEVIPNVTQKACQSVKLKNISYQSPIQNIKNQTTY
# TEST SUMMARY: Morgan-Elson colorimetric hyaluronidase assay
# Format: biochemical
ASSAY METRIC: IC50 (µM)
Respond with the bare value in µM.

Look over these answered cases.
- COMPOUND: "CCCCCCCCCCCCCCCC(=O)OC[C@H](O)[C@H]1OC(=O)C(O[C@H]2O[C@H](CO)[C@@H](O)[C@H](O)[C@H]2O)=C1O [6-sPalm-AA-2G]"
  IC50 [µM]: 22
- COMPOUND: "CCCCCCCCCCCCCCCC(=O)OC[C@H](O)[C@H]1OC(=O)C(O)=C1O [6-Palm-AA, 6-O-palmitoyl-L-AA]"
  IC50 [µM]: 194

Next:
Req: Short answer please: IC50, hyaluronidase type IV-S from a bovine testis (Bos taurus), entry CCCCCCCCCCCCCCCC(=O)OC[C@H](O)[C@H]1OC(=O)C(O[C@@H]2O[C@H](CO)[C@@H](O)[C@H](O)[C@H]2O)=C1O [6-sPalm-AA-2βG]
Resp: 25

Reference source: paper PMC6149712
